- System: hedgehog, isoform A (Drosophila melanogaster)
- Method Description: Hh protein inhibition, biochemical readout – plate reader, single concentration, primary screen (AID 588832);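 further: 0% = neutral control wells and 100% = positive control wells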
- Condition Summary: Biochemical plate reader assay, at 30.3 µM
Screen size: about 8,000 compounds; fewer than 10 were called active. How the calls were made is not given here. Not all results are given here.
Labels: 1 (yes) = active, 0 (no) = inactive

INSERT INTO results (compound, cat) VALUES
  ('CC(=O)c1ccc(NC(=O)CCS(=O)(=O)c2ccc3c(c2)n(C)c(=O)c(=O)n3C)cc1', '0 (no)'),
  ('CCCCNC(=S)NCc1ccc2[nH]c(C)cc2c1', '0 (no)'),
  ('O=C(CSc1nc2c(c(=O)n1-c1ccccc1)SCC2)N1CCN(c2ccccc2)CC1', '0 (no)'),
  ('COc1cccc(CNC(=O)COc2cc3c(c4oc(=O)cc(C)c24)CCC(C)(C)O3)c1', '0 (no)'),
  ('O=c1ccc2cc(S(=O)(=O)N3CCN(c4ccccc4F)CC3)ccc2[nH]1', '0 (no)'),
  ('CCOc1ccc(-c2nc(CS(=O)(=O)CC(=O)NCc3ccc(F)cc3)c(C)o2)cc1', '0 (no)'),
  ('CC1CCN(Cc2ccc(NC(=O)C3CCN(c4nnc(-n5cccc5)s4)CC3)cc2)CC1', '0 (no)'),
  ('O=c1c(Cc2ccccc2O)c(O)nc2n1CCCS2', '0 (no)'),
  ('CCOC(=O)N1CCC(N2Cc3cccc(C(=O)N4CCN(C5CCCCC5)CC4)c3C2=O)CC1', '0 (no)'),
  ('COc1ccc(-c2cn3c(C)c(C(=O)Nc4ccncc4)sc3n2)cc1', '0 (no)'),
  ('CCSc1nnc2c(n1)OC(c1ccc(C(=O)O)cc1)N(C(C)=O)c1ccccc1-2 (stereo not drawn)', '0 (no)'),
  ('CC(NC(=O)c1ccc(NC2=NC3CS(=O)(=O)CC3S2)cc1)c1ccccc1 (stereo not drawn)', '0 (no)'),
  ('O=C1C=CC2=C3c4cc(O)c(O)cc4CC3(O)COC2=C1O (stereo not drawn)', '1 (yes)');
